assay: Slurry screening, solubility determined by HPLC; format: physicochemical; details: organic solvent or mixture, thermodynamic from solid; slurry stirred 5 days; solvent 2-Me-THF

[
  {
    "COMPOUND": "CCCN(CCC)C(=O)C1=Cc2ccc(-c3ccc(C(=O)N4CCCC4)cc3)cc2N=C(N)C1 [starting material]",
    "solubility at 5 days, µg/mL": 1030
  }
]
